Item-by-item account of composite z-score
tested on: Chordin-like protein 2 (CHRDL2); experiment: compounds binding chordin-like 2 – biochemical, small-molecule microarray, 635 nm fluorescence, primary screen (AID 1126); conditions: fluorescence 635 nm, higher = more signal;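 further: printed compound slides probed with Chrdl2 protein at 4 µg/mL for 1 h at 4 C; score merges 667 nm emission intensity with signal to noise over three replicate slides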
Answer with a number only.

Known composite z-score results, listed for orientation:
COC(=O)[C@@]1(Cc2ccc(F)cc2)[C@H]2c3cc(C(=O)N(C)C)n(CCc4c[nH]c5ccc(OC)cc45)c3C[C@H]2CN1C(=O)c1ccccc1: -0.705
O=C1OCCC/C=C\[C@H]2OC34C=CCN(CCN5CCOCC5)C(=O)[C@H]3N(CCO)C(=O)[C@@H]4C12 (stereo partly drawn): -0.601
[N-]=[N+]=Nc1ccccc1[C@H]1OC(c2ccc(OCCCO)cc2)=N[C@@]1(CCS(=O)(=O)c1ccccc1)C(=O)N1CCOCC1: -0.409
O=C1O[C@H](c2ccccc2)[C@H](c2ccccc2)N2[C@H]1[C@@H](C(=O)Nc1nc3ccccc3s1)[C@]1(C(=O)Nc3ccc(C#CC4=CCCCC4)cc31)[C@H]2c1ccc(OCCO)cc1: 0.448
C=C(C(=O)CC[C@@H](OC(C)=O)c1ccc(OCCO)cc1)C(C)C: 0.0246

CC(C)(C)OC(=O)CC[C@@]1(C(=O)N2CCOCC2)N=C(c2ccc(OCCCO)cc2)O[C@@H]1c1ccccc1N=[N+]=[N-] on Chordin-like protein 2 (CHRDL2) gives composite z-score = -0.16

CN1C(=O)C2C=CC(C(O)C(C)(C)C)N(Nc3ccccc3)C2C1=O (stereo not drawn) on Chordin-like protein 2 (CHRDL2) gives composite z-score = -0.156

CCCC[C@H]1OB(O)C[C@H]2C1=C(C)Cn1c(=O)n(-c3ccccc3)c(=O)n12 on Chordin-like protein 2 (CHRDL2) gives composite z-score = 0.77

Cc1ccc(S[C@]2(C(=O)NCC(F)(F)F)CC(=O)N(C3Cc4ccccc4C3)[C@@H]2c2ccc(CO)cc2I)cc1 on Chordin-like protein 2 (CHRDL2) gives composite z-score = -1.18

CCCNC(=O)[C@@]1(C)c2ccccc2C(=O)N(Cc2cc(F)cc(C(F)(F)F)c2)[C@H]1c1ccc(CO)cc1 on Chordin-like protein 2 (CHRDL2) gives composite z-score = -1.76

Cc1ccc(S(=O)(=O)N2CC(C(=O)O)=CCC2c2ccccc2)cc1 (stereo not drawn) on Chordin-like protein 2 (CHRDL2) gives composite z-score = -1.74

C=CC[C@@]1(C(=O)NCCN2CCOCC2)N=C(c2ccc(OCCCO)cc2)O[C@@H]1c1ccccc1CN=[N+]=[N-] on Chordin-like protein 2 (CHRDL2) gives composite z-score = 0.055

CC(C)(C)OC(=O)CC[C@]1(C(=O)NCC(O)CO)N=C(c2ccc(OCCCO)cc2)O[C@H]1c1ccccc1CN=[N+]=[N-] (stereo partly drawn) on Chordin-like protein 2 (CHRDL2) gives composite z-score = 0.0916

---

experiment: plasmodial surface anion channel blockers, osmotic lysis – cell-based, P. falciparum Indochina, OD700, 1 h, primary screen (AID 1154); settings: P. falciparum Indochina infected RBC osmotic lysis, higher = more signal, called active from +8 up or from −8 down
Outcome: label 1 for z-score of at least 3; label 0 for anything lower.

CN(C)CCCC[C@@H]1NC(=O)[C@@H]2C[C@H](C(=O)NCCCCCCN)[C@H](c3ccc(O)cc3)N2C1=O: label 0

Lookup: API: above_or_equal(metric=z-score, cutoff=3) for item C=CCC(OC(C)=O)[C@@H]1[C@@H](N(Cc2ccc(-c3ccccc3)cc2)C(=O)c2ccc(C)cc2)c2cc(OCCCO)ccc2N1C(=O)Cc1ccc(OC)cc1 (stereo not given in full)
Found: label 0

Lookup: API: above_or_equal(metric=z-score, cutoff=3) for item O=C(NCC(O)CO)[C@]1(CCS(=O)(=O)c2ccccc2)N=C(c2ccc(OCCCO)cc2)O[C@@H]1c1ccccc1 (stereo not given in full)
Found: label 1

Lookup: API: above_or_equal(metric=z-score, cutoff=3) for item COc1ccc([Si](C)(C)[C@H]2[C@H](CCO)O[C@@]3(C(=O)N(Cc4cccc(N5C(=O)c6cccc7cccc5c67)c4)c4ccccc43)[C@@H]2C)cc1
Found: label 0

Lookup: API: above_or_equal(metric=z-score, cutoff=3) for item C=C[C@H](C)[C@H](OC(=O)Nc1ccc(OC)cc1)c1ccc(O)c2ccccc12
Found: label 0

Lookup: API: above_or_equal(metric=z-score, cutoff=3) for item CC(C)(C)OC(=O)CC[C@@]1(C(N)=O)N=C(c2ccc(OCCCO)cc2)O[C@@H]1c1ccccc1N=[N+]=[N-]
Found: label 1

Lookup: API: above_or_equal(metric=z-score, cutoff=3) for item O=C(NCc1ccccc1)[C@@H]1c2ccccc2C(=O)N(C2CCCCC2)[C@H]1c1ccc(CO)cc1
Found: label 0

Lookup: API: above_or_equal(metric=z-score, cutoff=3) for item O=C1c2ccccc2[C@](Cc2ccccc2I)(C(=O)O)[C@H](c2ccc(CO)cc2)N1Cc1ccccc1C(F)(F)F
Found: label 1

Lookup: API: above_or_equal(metric=z-score, cutoff=3) for item CC(C)CNC(=O)[C@@]1(C)c2ccccc2C(=O)N(C(C)C)[C@H]1c1ccc(CO)cc1
Found: label 0

Lookup: API: above_or_equal(metric=z-score, cutoff=3) for item CN(C)CCCC[C@@H]1NC(=O)[C@@H]2C[C@H](C(=O)NCCCCCN)[C@H](c3ccc(O)cc3)N2C1=O
Found: label 0

Lookup: API: above_or_equal(metric=z-score, cutoff=3) for item C[n+]1ccc2ccc(O)cc2c1
Found: label 0

Lookup: API: above_or_equal(metric=z-score, cutoff=3) for item COCCn1c(C(=O)N2CCCC2)cc2c1C[C@H]1CN(C(=O)c3ccccc3)[C@@](Cc3ccc(OC)cc3)(C(=O)OC)[C@@H]21
Found: label 0

Lookup: API: above_or_equal(metric=z-score, cutoff=3) for item C=C(/C(=C/C[C@@H](OC(C)=O)c1ccc(CO)o1)c1cnc2ccccc2c1)C(C)C
Found: label 1
